B1: TPR 5TU (parent)
chain: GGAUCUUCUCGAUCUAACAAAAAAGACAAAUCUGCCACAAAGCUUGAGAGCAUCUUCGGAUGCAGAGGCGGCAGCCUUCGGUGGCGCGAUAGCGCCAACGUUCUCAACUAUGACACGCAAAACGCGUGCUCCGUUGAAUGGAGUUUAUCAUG

# Variants of: B1
# method-description: polymerase ribozyme fitness, log enrichment relative to wild type (log ratio); higher = more active; in vitro selection for triplet polymerase activity
Variants at the floor of the assay were thinned out.
Assign polymerase ribozyme fitness (log ratio) to each entry below.

# mutation-spec, polymerase ribozyme fitness (log ratio)
records = [
    ("U77A U78C G94U C95G C105U", "≤ -4.2"),
]

Field: polymerase ribozyme fitness (log ratio). Fill in for each record below.
1. A49G C87A A89C U90A C129U
2. U7C C10U U55A G62A G65C U78G C96A

[reply]
["≤ -4.2", "≤ -4.2"]
